Each recorded value in this set is attributed to the Human Domainome abundance scans (Beltran et al. 2025).

Would you mind telling me the reported abundance fitness of each entry?
B1: Gamma-crystallin C, residues 4 to 79; numbered along this chain, P07315 (parent)
chain: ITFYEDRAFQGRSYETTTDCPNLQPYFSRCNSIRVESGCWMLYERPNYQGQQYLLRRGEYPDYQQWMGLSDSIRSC

variants of: B1; assay: abundance fitness (aPCA) (normalised: wild type 0, dead -1); higher = more abundant; growth selection in yeast, the domain comes from the species named; conditions: Homo sapiens
Numbers only.

Solved entries (count: 4):
// query Check the records and state abundance fitness for P21H
// result -0.164

// query Check the records and state abundance fitness for S70R
// result -0.064

// query Check the records and state abundance fitness for C76S
// result 0.051

// query Check the records and state abundance fitness for G38I
// result -0.202

Okay, here is my list. What is abundance fitness for each of these?
1. C39G
2. Q52M
3. D62R
4. I73L
5. Y53E
6. C39D

// result
1: 0.08; 2: -0.108; 3: -0.034; 4: 0.025; 5: -0.142; 6: -0.133

Okay, here is my list. What is abundance fitness for each of these?
1. W40L
2. Q52V
3. A8W
4. T16H

// result
-0.243
-0.076
-0.069
0.007
